# System: VchCAST RNA-guided transposition machinery (E. coli BL21(DE3) host, lacZ target)
# procedure_details: relative integration efficiency (T-LR orientation) vs wild-type transposon end (log2 (normalized fold change)); transposon end mutated: right end (5 bp flank + 75 bp right end); higher = more efficient transposition
Kind request: treat -0.5 as inclusive, so relative integration efficiency (log2) at -0.5 or higher is yes, anything lower is no.

ACATTTGTTGATACCACCATAAAATGGTAATTCCACCCCTACATTGATAATTATCACACCCAATTTAACTATAACGCTCTGATCATAGTCAGACCAACATTGCTACGACCCGTATTCGCACCGACAC : no

Identify whether the reported relative integration efficiency (log2) of the following sequence is -0.5 or greater: ACATTGGTCGATACAACCATAAAATGATAATTACACCCATAAATTCATCATTATCACACCCAATTTAACTATAACGCTCTGATCATAGTCAGACCAACATTGCTACGACCCGTATTCGCACCGACAC
no

// repeat for ACATTTGTTGATACAACCATAAGTTGATATTTTCAACCATATATTGATATCTCTCACAACCATAAAATGATAATTACTCTGATCATAGTCAGACCAACATTGCTACGACCCGTATTCGCACCGACAC and report
yes

// repeat for ACATTTGTTGATACAACCATAAAATGATAATTTGACCCATAAATTGATAATTATCACACCCATAAATTGATATTGCCTCTGATCATAGTCAGACCAACATTGCTACGACCCGTATTCGCACCGACAC and report
yes

// repeat for ACATTTGTTGATACAACCATAAAATGATAATTACACCCATAAATGGATCATTATCACACCCAATTTAACTATAACGCTCTGATCATAGTCAGACCAACATTGCTACGACCCGTATTCGCACCGACAC and report
yes
